test system: SNB-75 CNS; assay: NCI-60 one-dose screen, 48 h (100 = growth as untreated, 0 = no growth, -100 = all killed); conditions: 10 µM unless noted
This is part of a sample that, as a whole, favours compounds with a hit. Of some 83,000 tested, about 20% had one in any assay. Activity calls are given as the source filed them. How the source made its calls: active means growth percent below 10; inactive means the rest.
readout label: growth

Reference set (3 entries):
>  <molecule>
CCSc1cnnc2ccccc12

>  <growth>
89.3% (inactive)

$$$$
>  <molecule>
O=C1C=CN2C(=O)CC=CC2[C@@H]1O (some centres not stated)

>  <growth>
94.1% (inactive)

$$$$
>  <molecule>
COc1ccc2c(c1)OC1=C(C(=O)OC1)C2c1cc(OC)c2c(c1)OCCO2 (configuration not stated)

>  <growth>
30% (inactive)

$$$$

The value of growth measured for the molecule CCCC(CCC)(C(N)=O)C(=O)O turned out to be 104% (inactive)

# molecule O=C1SCN(Cc2ccccc2)CN1Cc1ccccc1 ; its growth = 91% (inactive)

The reported value for COc1cc(NC(=O)CSc2nc3ccc(Cl)cc3c(=O)n2Cc2ccccc2)cc(OC)c1OC in terms of growth is 53.4% (inactive)

// growth value for CC(C)CCSc1nc(-c2ccc(F)cc2)c(C#N)c(N2CCN(C)CC2)n1 : 73% (inactive)

Summary for this molecule, COc1ccc(NC(=O)Cn2c(=O)sc3c(-c4ccc(Cl)cc4)cc(-c4ccc(Cl)cc4)nc32)cc1 : growth is 89.5% (inactive)

molecule CCN(CC)c1cc(C)c(Cc2c(OC)ccc3ccccc23)cc1C , growth observed: 91.1% (inactive)

Briefly, growth measured for COc1cccc(/C=N\Nc2ccc([N+](=O)[O-])cn2)c1O : 83.1% (inactive)

Per the record, c1cc2c(cc1-c1cnc3nonc3n1)OCO2 has growth of 96.8% (inactive)

Record summary for COc1ccc(/C=C(\C#N)c2cc(OC)c(OC)c(OC)c2)cc1 : reported growth = 30.3% (inactive)

---

System: SK-MEL-2 melanoma
Test: NCI-60 one-dose screen, 48 h (100 = growth as untreated, 0 = no growth, -100 = all killed)
Settings: 10 µM unless noted
Procedure: Growth inhibition of the SK-MEL-2 human tumor cell line is measured as a screen for anti-cancer activity. Cells are grown in 96 well plates and exposed to the test compound for 48 hours. Compounds are tested at a single concentration, which is 10^-5 M for most compounds. The reported endpoint is percent growth (GI% or GIPRCNT), where numbers from 0 - 100% represent growth inhibition, and numbers from -100% - 0 represent cell death. For example, a value of 40 represents 60% growth inhibition. […]
About 83,000 compounds went through this panel and 20% of them were active in at least one assay; those are over-represented in the sample as a whole.
molecules and their reported growth
Numeric only. Scale: %

>  <molecule>
O=C1Nc2ccc(Br)cc2/C1=N/c1nc(-c2ccccc2)cs1

>  <test system>
SK-MEL-2 melanoma

>  <value reported>
88

$$$$
>  <molecule>
COc1ccc(/C(C)=N/NC(=O)CSc2nc3ccccc3c(=O)n2CCc2ccc(S(N)(=O)=O)cc2)cc1

>  <test system>
SK-MEL-2 melanoma

>  <value reported>
6.04

$$$$
>  <molecule>
COc1cnc2c(c1)C(=O)c1c-2n(CCCN2CCN(C)CC2)c(=O)c2cc(Cl)ccc12

>  <test system>
SK-MEL-2 melanoma

>  <value reported>
32.3

$$$$
>  <molecule>
C[C@@H]1N=C(c2ccc3ccccc3c2)Nc2nc3ccccn3c2C1=O

>  <test system>
SK-MEL-2 melanoma

>  <value reported>
36.3

$$$$
>  <molecule>
COc1cc(NC(=O)CSc2nc3ccc(Cl)cc3c(=O)n2Cc2ccccc2)cc(OC)c1OC

>  <test system>
SK-MEL-2 melanoma

>  <value reported>
77.6

$$$$
>  <molecule>
COc1cc(/C=C2\CN(C(=O)OC(C)(C)C)C/C(=C\c3ccc(O)c(OC)c3)C2=O)ccc1O

>  <test system>
SK-MEL-2 melanoma

>  <value reported>
86.2

$$$$

Field growth (entry CCCCc1nc(Cl)c(C2CC(c3ccc(S(N)(=O)=O)cc3)=NN2c2cc(Cl)cc(Cl)c2)[nH]1 (centres undefined) ) reads 47.2

The molecule CCN(CC)CC(=O)Nc1c(C)ccc(N)c1C showed growth equal to 99.4

Value of measured growth for the entry CCCCc1nc(Cl)c(C2CC(c3ccc(S(N)(=O)=O)cc3)=NN2c2ccc(C#N)cc2)[nH]1 (centres undefined) : 91
